Test system: SW620 tumor organoids
assaySummary: cells
measurementSetup: Homo sapiens, SW-620, 72 h, read-out: IC50 5FU, SW620 tumor organoids, 72 h; + Compound 6.11 2.75 μM
pIC50: −log10 of the molar value.
metricName: pIC50

            compoundstring  metricname  measuredresult
0  O=c1[nH]cc(F)c(=O)[nH]1       pIC50            5.54

---

Test system: MDA-MB-231 tumor organoids
assaySummary: Tumor organoid cytotoxicity, MDA-MB-231
Type: cell-based
measurementSetup: Homo sapiens, MDA-MB-231, Compound 13 2 μM; read-out: IC50 doxorubicin (nM) in MDA-MB-231
metricName: IC50

                             compoundstring  measuredresult
0  COc1cccc2c1C(=O)c1c(O)c3c(c(O)c1C2=O)C[C@@](O)(C(=O)CO)C[C@@H]3O[C@H]1C[C@H](N)[C@H](O)[C@H](C)O1         92.2 nM
